- ASSAY COMMENT: cAMP Responsive Elements (CRE) small molecule agonists, cell-based qHTS assay: qHTS cell viability counter screen (AID 2060914);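 also: viability read after 3 h of compound exposure; nearly all actives have a fitted effect of over 50% in size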
- SETUP CONDITIONS: CRE-bla HEK293T viability, CellTiter-Glo luminescence, 5 h; series mostly up to 92.4 µM
Records with an inconclusive call do not appear. The source made the active and inactive calls. Calls follow the shape of the dose curve; as a rule, active = well fitted cell-killing curve with a large enough effect in the repeat runs; inconclusive = weak or mixed curves, or effect the other way; inactive = flat fitted curve, though single readings scatter.
MEASURE NAME: activity change, negative = cytotoxicity

Entry CCN(C(=O)c1cc(C)cc(OC[C@H](C)Nc2ccncc2)c1)C(C)C needs its activity change, negative = cytotoxicity filled in; supply it.
inactive

Entry CCn1c2ccccc2c2cc([N+](=O)[O-])ccc21 needs its activity change, negative = cytotoxicity filled in; supply it.
inactive

Entry O=C(O)c1cc(O)c2ccccc2c1O needs its activity change, negative = cytotoxicity filled in; supply it.
inactive

Entry OCCO needs its activity change, negative = cytotoxicity filled in; supply it.
inactive

Entry COc1ccnc(CS(=O)c2nc3cc(OC(F)F)ccc3[nH]2)c1OC (stereo not drawn) needs its activity change, negative = cytotoxicity filled in; supply it.
inactive

Continuing:
Entry CNc1ccccc1 needs its activity change, negative = cytotoxicity filled in; supply it.
inactive

Entry CC/C=C(\C)C=O needs its activity change, negative = cytotoxicity filled in; supply it.
inactive

Entry CC(=O)OC1CCCCC1C(C)(C)C (stereo not drawn) needs its activity change, negative = cytotoxicity filled in; supply it.
inactive

###

- ASSAY COMMENT: cAMP Responsive Elements (CRE) small molecule agonists, cell-based qHTS assay: qHTS cell viability counter screen (AID 2060914);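 also: viability read after 3 h of compound exposure; nearly all actives have a fitted effect of over 50% in size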
- SETUP CONDITIONS: CRE-bla HEK293T viability, CellTiter-Glo luminescence, 5 h; series mostly up to 92.4 µM
Inconclusive results are not listed. The source made the active and inactive calls. The call rests on the fitted dose curve; in most records, active means well fitted cell-killing curve with a large enough effect in the repeat runs; inconclusive means weak or mixed curves, or effect the other way; inactive means flat fitted curve, though single readings scatter.
MEASURE NAME: activity change, negative = cytotoxicity

Past entries and their recorded results:
Entry CC1=CC[C@H](C(C)C)C=C1 needs its activity change, negative = cytotoxicity filled in; supply it.
inactive

Entry CC(C)OC(=O)C(C)N(C(=O)c1ccccc1)c1ccc(F)c(Cl)c1 (stereo not given) needs its activity change, negative = cytotoxicity filled in; supply it.
inactive

Entry Cc1cccc(Nc2ccccc2)c1 needs its activity change, negative = cytotoxicity filled in; supply it.
inactive

Entry CCCCC(CC)(CO)CO needs its activity change, negative = cytotoxicity filled in; supply it.
inactive

Entry C/C=C(\C)C(C)=O needs its activity change, negative = cytotoxicity filled in; supply it.
inactive

Continuing:
Entry NC(=O)N(O)[C@@H]1COc2cc(OCc3ccccc3)ccc21 needs its activity change, negative = cytotoxicity filled in; supply it.
inactive

Entry C#CCN[C@@H]1CCc2ccccc21 needs its activity change, negative = cytotoxicity filled in; supply it.
inactive

###

- ASSAY COMMENT: cAMP Responsive Elements (CRE) small molecule antagonists, cell-based qHTS assay: qHTS cell viability counter screen (AID 2060913); also: nearly all actives have a fitted effect of over 40% in size
- SETUP CONDITIONS: CRE-bla HEK293T viability, CellTiter-Glo luminescence, 5 h; series mostly up to 92.4 µM
Results filed as inconclusive are left out. Active and inactive are the calls of the source. Calls follow the shape of the dose curve; as a rule, active = well fitted cell-killing curve with a large enough effect in the repeat runs; inconclusive = weak or mixed curves, or effect the other way; inactive = flat fitted curve, though single readings scatter.
MEASURE NAME: viability change, negative = cytotoxic

Past entries and their recorded results:
Entry CN1Cc2cc(C(=O)N3CCC(C4CCNCC4)CC3)ccc2NC(CC(=O)O)C1=O (stereo not given) needs its viability change, negative = cytotoxic filled in; supply it.
inactive

Entry CC(C)(C)C(=O)c1ccccc1 needs its viability change, negative = cytotoxic filled in; supply it.
inactive

Entry O=C(O)CONC(=O)c1ccccc1 needs its viability change, negative = cytotoxic filled in; supply it.
inactive

Entry C=CCSCC1Nc2cc(Cl)c(S(N)(=O)=O)cc2S(=O)(=O)N1 (stereo not given) needs its viability change, negative = cytotoxic filled in; supply it.
inactive

Continuing:
Entry CCOC(=O)Cn1c(=O)sc2cccc(Cl)c21 needs its viability change, negative = cytotoxic filled in; supply it.
inactive
